assay target: Sirt2 (Homo sapiens)
Sequence (Q8IXJ6 2-389): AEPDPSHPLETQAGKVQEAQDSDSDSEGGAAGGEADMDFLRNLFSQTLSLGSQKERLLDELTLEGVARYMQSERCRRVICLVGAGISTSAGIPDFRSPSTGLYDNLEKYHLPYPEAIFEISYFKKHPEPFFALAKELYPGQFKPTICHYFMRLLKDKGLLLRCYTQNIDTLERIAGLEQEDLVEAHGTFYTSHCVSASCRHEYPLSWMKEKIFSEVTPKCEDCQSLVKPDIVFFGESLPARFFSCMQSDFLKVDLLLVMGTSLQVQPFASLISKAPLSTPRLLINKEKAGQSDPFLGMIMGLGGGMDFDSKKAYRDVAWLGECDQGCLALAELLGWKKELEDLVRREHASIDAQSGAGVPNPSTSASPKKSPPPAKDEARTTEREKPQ
readout: Ki (µM)
Supply the numeric figure in µM, leaving out any unit text.

GET Ki where system = Sirt2 (Homo sapiens) and item = O=C(/C=C/c1ccc(O)c(O)c1)N[C@@H](Cc1c[nH]c2ccccc12)C(=O)O [javamide-II]
5.3
